// data source = patent US20200308162A1

assay: Drug solubility in water, DMSO and DCM (HPLC of filtered supernatant); conditions: DMSO, organic solvent or mixture, thermodynamic from solid
Counter-ions that a name gives are not always drawn.
Measured endpoint: solubility

Recorded results for 3 compounds are shown here.
1. CC(C)(C)NC[C@@H](COc1nsnc1N1CCOCC1)OC(=O)CCC(=O)O :: > 50 mg/mL
2. C=C(CC)C(=O)c1ccc(OCC(=O)O[C@@H](C)C(=O)O[C@@H](C)C(=O)O[C@@H](C)C(=O)O[C@@H](C)C(=O)O[C@@H](C)C(=O)O[C@@H](C)C(=O)OCC)c(Cl)c1Cl :: > 50 mg/mL
3. CCOC(=O)CCC(=O)O[C@@H](CNC(C)(C)C)COc1nsnc1N1CCOCC1.Cl [Compound 6, Timolol-O-Ethylsuccinate HCL] :: > 50 mg/mL

Please look at the items below and tell me solubility for each one, in order.
1. CC(C)(C)NC[C@@H](COc1nsnc1N1CCOCC1)OC(=O)/C=C\C(=O)O [Compound 7, Timolol-O-Maleate]
2. CCOC(=O)/C=C\C(=O)OC(CNC(C)(C)C)COc1nsnc1N1CCOCC1 (centres unmarked) [Compound 18, Timolol-O-Ethyl Maleate]
3. C=C(CC)C(=O)c1ccc(OCC(=O)O[C@@H](C)C(=O)O[C@@H](C)C(=O)O[C@@H](C)C(=O)O[C@@H](C)C(=O)OCC)c(Cl)c1Cl
4. CCN[C@H]1C[C@H](C)S(=O)(=O)c2sc(S(=O)(=O)NC(=O)/C=C/C(=O)OCC)cc21 [Compound 14, Dorzolamide-Ethylfumurate]
5. CCOC(=O)/C=C/C(=O)O[C@@H](CNC(C)(C)C)COc1nsnc1N1CCOCC1 [Compound 17, Timolol-O-Ethylfumurate]
6. CCCCCCCCCCCCOC(=O)/C=C/C(=O)O[C@@H](CNC(C)(C)C)COc1nsnc1N1CCOCC1 [Compound 12, Timolol-O-Laurylfumurate-Maleate]

> 50 mg/mL
> 100 mg/mL
> 40 mg/mL
> 100 mg/mL
> 50 mg/mL
> 100 mg/mL
